B1: FLOT1 (parent)
chain: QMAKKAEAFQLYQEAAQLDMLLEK

- Variants of: B1
- Test: protein stability index of a GFP-peptide fusion (GPS, HEK-293T) (PSI 1-6); higher = more stable;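 also: lentivirally expressed fusions sorted by FACS into six bins by GFP to DsRed ratio, PSI derived from sequencing read proportions per bin multiplied by bin number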
- Stated Conditions: c terminus: a fixed tail appended
Parameter threshold = 3. Response is 1 (yes) when protein stability index meets or exceeds it, else 0 (no).

INSERT INTO assay_data (mutation_key, group) VALUES
  ('L18E', '1 (yes)');

Data request: // inclusive: protein stability index at least 3? input: `L21F`
Data returned: 0 (no)

Data request: hey, is protein stability index for this one >= 3? `M2T`
Data returned: 0 (no)

Data request: Entry `A15D` : is its protein stability index no less than 3?
Data returned: 1 (yes)

Data request: Please tell me: is the variant `L21W` at or over 3 in terms of protein stability index?
Data returned: 0 (no)

Data request: Check this variant for protein stability index at or above 3: `A6V`
Data returned: 0 (no)

Data request: Reported protein stability index at or above 3? `A6N`
Data returned: 1 (yes)

Data request: Entry `Y12I` : is its protein stability index no less than 3?
Data returned: 0 (no)
